These entries and their values trace back to PubChem BioAssay (NCI).

experiment: NCI Yeast Anticancer Drug Screen. Data for the sgs1 mgt1 strain (AID 161);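 note: 0% = growth of cultures given vehicle only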; conditions: S. cerevisiae sgs1 mgt1 strain, at 50.0 µM, stronger effect = higher value
The panel holds about 79,000 compounds, 15% with a hit somewhere; the sample as a whole holds those more often. Active and inactive are the calls of the source. Cut-off read from the data, not from the text of the source: active = growth inhibition above about 70%; inactive = the rest.
MEASURED ATTRIBUTE: growth inhibition

growth inhibition measured on OCCOc1c(Cl)c(C(Cl)(Cl)Cl)nc2ccccc12 = 91% (active)

growth inhibition measured on CC(C)NCC(O)COc1c2ccccc2nc2ccccc12 (stereo unspecified) = -24.2% (inactive)

growth inhibition measured on CN1CCC(C)(c2ccccc2)C(=O)C1 (stereo unspecified) = 11% (inactive)

growth inhibition measured on C=C(C(=O)O)C1CC[C@@]2(C)CC(O)CC(=C)C2C1 (stereo partly specified) = -8.1% (inactive)

growth inhibition measured on O=C(NC(=S)Nc1ccsc1)c1ccccc1 = 2.6% (inactive)

growth inhibition measured on Cc1ncc(CO)c(/C=N\Nc2ccc([N+](=O)[O-])cc2[N+](=O)[O-])c1O = 9.7% (inactive)
